- System: Vero E6 infected with SARS-CoV-2
- experiment: inhibition of SARS-CoV-2 cytopathic effect; higher = more antiviral protection, active = above 15
- runConditions: 100 nM; 48 h
propertyName: inhibition of SARS-CoV-2 cytopathic effect (%)
Numbers only; they are read as %.

O=C1NCCNC1c1cccs1 (stereo not drawn)
-1.98
CCCCN1CCC(CNC(=O)c2c3n(c4ccccc24)CCCO3)CC1
0.6

Moving on to another compound below.
Prompt line: Given the entry CCOC(=O)Nc1ccc(NCc2c(C)cc(C)cc2C)cc1N , report its measured inhibition of SARS-CoV-2 cytopathic effect.
Response line: -0.41

====

- Tested on: Vero E6 infected with SARS-CoV-2
- experiment: inhibition of SARS-CoV-2 cytopathic effect; higher = more antiviral protection, active = above 15
- runConditions: 8.33 nM; 48 h
A collection of compounds and their measured inhibition of SARS-CoV-2 cytopathic effect
Numbers only; they are read as %.

Look over these answered cases.
CCN1CCC(n2cc(CNc3cc(Cl)c4ncc(C#N)c(Nc5ccc(F)c(Cl)c5)c4c3)nn2)CC1 [cot-inhibitor-2]
-1.48
CCCc1cc(C)[nH]c(=O)c1CNC(=O)c1cc(-c2ccc(N3CCN(C(C)C)CC3)nc2)cc2c1cnn2C(C)C
1
O=C(O)CCc1nc(-c2ccccc2)c(-c2ccccc2)o1 [oxaprozin]
-2.65
COc1ccc2c(O[C@@H]3C[C@H]4C(=O)N[C@]5(C(=O)NS(=O)(=O)C6CC6)C[C@H]5/C=C\CCCCN(C)C(=O)[C@@H]4C3)cc(-c3nc(C(C)C)cs3)nc2c1C [simeprevir]
3.7
O=C(O)[C@H]1CN(C/C=C/P(=O)(O)O)CCN1 [midafotel]
-0.69

Prompt line: Give the reported inhibition of SARS-CoV-2 cytopathic effect for CS(=O)(=O)c1ccc(-c2nnc(/C=C/c3nnc(-c4ccc(C#N)cc4)o3)n2-c2ccccc2Cl)nc1 (system: Vero E6 infected with SARS-CoV-2).
Response line: 0.31

Prompt line: Consider next the compound C=C1C[C@@]2(O)O[C@@]3(C[C@H]2C(C)C)[C@@H](C)CC[C@@H]13 [curcumol] in the same way.
Response line: -1.48

====

- Test system: Vero E6 infected with SARS-CoV-2
- experiment: inhibition of SARS-CoV-2 cytopathic effect; higher = more antiviral protection, active = above 15
- runConditions: 1 nM; 48 h
propertyName: inhibition of SARS-CoV-2 cytopathic effect (%)
Numbers only; they are read as %.

Look over these answered cases.
CO[C@H]1CC=C2CCN3CCC4=C(CC(=O)OC4)[C@]23C1
1.56
O=C(CC(c1ccccc1)c1ccccc1)N1CCN(C(c2ccccc2)c2ccccc2)CC1
-0.56
O=C1c2ccccc2S(=O)(=O)N1CCCCN1CCN(c2ncccn2)CC1
4.62
C[C@]12C[C@H](O)[C@H]3[C@@H](CCC4=CC(=O)CC[C@@]43C)[C@@H]1CC[C@@H]2C(=O)CO
-1.19

Prompt line: Given the entry Cc1ccc(C)c(OCCCC(C)(C)C(=O)O)c1 , report its measured inhibition of SARS-CoV-2 cytopathic effect.
Response line: 0.62

Prompt line: Consider next the molecule CN(C)C(=O)Oc1cc(OC(=O)N(C)C)cc(C(O)CNC(C)(C)C)c1 (stereo not given) in the same way.
Response line: -2.95

====

- Tested on: Vero E6 infected with SARS-CoV-2
- experiment: inhibition of SARS-CoV-2 cytopathic effect; higher = more antiviral protection, active = above 15
- runConditions: 833.33 nM; 48 h
propertyName: inhibition of SARS-CoV-2 cytopathic effect (%)
Numbers only; they are read as %.

CCN(CCCc1ccccc1)CCCc1ccccc1
-0.58
O=S(=O)(N[C@H](CO)C(C(F)(F)F)C(F)(F)F)c1ccc(Cl)s1
-4.51
O[C@@H]1CCCC[C@H]1N1CCC(c2ccccc2)CC1 (racemic)
1.42

Prompt line: Given the entry Cc1ccc2c(c1CCC(=O)O)CC[C@@H](NS(=O)(=O)c1ccc(Cl)cc1)C2 , report its measured inhibition of SARS-CoV-2 cytopathic effect.
Response line: -1.42

Prompt line: Consider next the molecule O=c1c2ccccc2[se]n1-c1ccccc1 [Ebselen] in the same way.
Response line: 1.45

Prompt line: Consider next the molecule CC(C)(C)C[C@@H]1N[C@@H](C(=O)N[C@H]2CC[C@H](O)CC2)[C@H](c2cccc(Cl)c2F)[C@]12C(=O)Nc1cc(Cl)ccc12 in the same way.
Response line: 2.65

Prompt line: Consider next the molecule CCS(=O)(=O)c1cccc(-c2cc(C(=O)NC3CCN(C)CC3)c(C)c3[nH]c4ncc(C)cc4c23)c1 in the same way.
Response line: -0.44

Prompt line: Consider next the molecule Cc1c(OCC(F)(F)F)ccnc1C[S+]([O-])c1nc2ccccc2[nH]1 (stereo not given) in the same way.
Response line: -1.96

Prompt line: Consider next the molecule CCCNCC(O)COc1ccccc1C(=O)CCc1ccccc1 (stereo not given) in the same way.
Response line: 3.83

Prompt line: Consider next the molecule CCc1nc(-c2cccc(C)c2)c(-c2ccnc(NC(=O)c3ccccc3)c2)s1 in the same way.
Response line: -1.52

Prompt line: Consider next the molecule CN(C)CCCNC(=O)c1ccc(-c2cc(O)c3ncccc3c2)cc1 in the same way.
Response line: -0.72

Prompt line: Consider next the molecule O=[N+]([O-])c1cc([N+](=O)[O-])c(/C=C/c2ccc(Cl)c(Cl)c2)cc1/C=C/c1ccc(Cl)c(Cl)c1 in the same way.
Response line: -5.26

Prompt line: Consider next the molecule COc1ccc(Cn2ccc3ccc(C(=O)NO)cc32)cc1 in the same way.
Response line: 1.7

Prompt line: Consider next the molecule Cc1cc2c(s1)Nc1ccccc1N=C2N1CCN(C)CC1 in the same way.
Response line: 8.51

Prompt line: Consider next the molecule NCCCNCCSP(=O)(O)O in the same way.
Response line: 1.87

Prompt line: Consider next the molecule Fc1ccccc1-c1nc2ccn(Cc3ccc(-c4ccc(C(F)(F)F)cc4C(F)(F)F)nn3)cc-2n1 in the same way.
Response line: 1.35
